// provenance: patent US20230287088A1

# Assay target: T1, Mouse-Fc-tagged SARS-CoV2 S1-RBD (Sino Biologicals) recombinant protein (SARS-CoV-2, UniProt P0DTC2 319-541)
# T1 construct: domain: S1-RBD
# Protocol: competition ELISA: blocks S1-RBD-mFc binding to coated ACE-2 ECD
Reported values of IC50 for individual entries

Binder | IC50
P043.A.00017.E07 (protein sample ID 449) (antibody, V domains shown) VH: QSVEESGGRLVTPGTPLTLTCTVSGFSLSSYAMSWVRQAPGKGLEWIGIISSSGSTYYASWAKGRFTISKTSTTVDLKITSPTTEDTATYFCARAMYPGYSTGVYNIWGPGTLVTVSL VL: AIQMTQSPSSLAASVGDTVTITCKASEDIGYELNWYQQKLGIAPKLLIYGANTLESGVPSRFSGSGSETDYTLTISSVQAEDAGIYYCQQGYNTPNTFGAGTKVEIK | 0.0539 µg/mL
P043.A.00047.H08 (protein sample ID 447) (antibody, V domains shown, also called antibody with the Protein sample ID 447) VH: QSLEESGGDLVKPGASLTLTCTASGFSFSSDGMCWVRQAPGKGLEWIACIAAGSSGSTYYATWAQGRFTISKSSSTTVTLQMTSLTAADTATYFCAGEDYTGNNYYALWGPGTLVTVSS VL: AIDMTQTPSPVSAVVGDTVTINCQASENIYSFLAWYQQKPGQPPKLLIYFASKLASGVPSRFKGSGSGTQFTLTISDVHSDDAAIYYCQQTGTYSDADNTFGGGTEVVVK | 0.0299 µg/mL
P043.A.00017.E04 (antibody, V domains shown) VH: QSVEESGGRLVTPGTPLTLTCTVSGFSLNNYAMNWVRQAPGKGLEWIGIISSSGNTYYANWAKGRFTISKTSTTVDLKITSPTTEDTATYFCARDSYPGYSPYYGMDPWGPGTLVTVSS VL: AIQMTQSPSSLAASVGDTVTITCKASEDIAYGLNWYQQKLGITPKLLIYGANTLESGVPSRFSGSGSETHYTLTISSVQAEDAGIYYCQQGYNTPPTFGAGTKVEIK | 0.0321 µg/mL
P043.A.00036.C07 (antibody, V domains shown, also called 448; protein sample ID 448) VH: QSLEESGGDLVKPGASLTLTCTASGFSFSSSYWICWVRQAPGKGLEWIGCIYTGSGSTWYASWAKGRFTISKTSSTTVTLQMTSLTAADTATYFCARGYGSYMYDFWGPGTLVTVSS VL: DVVMTQTPASVEAAVGGTVTIKCQASQSISTALAWYQQKPGQPPKLLIYSASTLESGVPSRFKGSGSGTEFTLAISDLESADAATYYCQGADGSSSSFGGGTEVVVK | 0.0434 µg/mL
P043.A.00018.C02 (protein sample ID 450) (antibody, V domains shown) VH: QSVEESGGRLVTPGTPLTLTCTVSGFSLSSYAMSWVRQAPGKGLEWIGIINSGRSTYYASWAKGRFTISKTSTTVDLKITSPTTEDTATYFCARDATSIGYYRYYGMDPWGPGTLVTVSS VL: AIQMTQSPSSLAASVGDTVTITCKASEDIGYGLNWYQQKLGIAPKLLIYGANTLESGVPSRFSGSGSETDYTLTISSVQAEDAGIYYCQQGYSTPLTFGAGTKVEIK | 0.0433 µg/mL

Q) Any idea what IC50 was measured for P043.A.00117.C08 (protein sample ID 469) (antibody, V domains shown) VH: QSLEESGGGLVKPEGSLTLTCKASGFDLNTYYYMCWVRQAPGKGLEWIACIGTSDSGHTAYASWARGRFTISKTSSTTVTLQMTGLTAADTATYFCARGGRSVGDGVDLWGPGTLVTVSS VL: DIVMTQTPASVEAAVGGTVTIKCQASQSISSWLAWYQQKPGQPPKLLIYDAFDLASGVPSRFKGSGSGTEFTLTISDLESADAATYYCQSYLYGESGSHGFGFGGGTEVVVR ?
A) 0.0192 µg/mL

Q) Now consider P043.A.00092.C12 (antibody, V domains shown, also called 472; protein sample ID 472) VH: QEELKETGGGLVQPGGSLTLSCKASGFDFSSYYMSWVRQAPGKGLEWIGVIYASKGSTDYASWVNGRFTISSDNAQNTVDLQMNSLTAADTATYYCARSKRFYTYGYAGYAYAHYYYGMDLWGPGTLVTVSS VL: AIQMTQSPSSLAASVGDTVTITCKASEDIGYGLNWYQQKLGIAPKLLIYGADTLESGVPSRFSGSGSETDYTLTISSVQAEDAGIYYCQQGYSTPLTFGAGTKVEIK and answer again.
A) 0.0299 µg/mL

Q) Would you kindly repeat that for P043.A.00024.C11 (protein sample ID 451) (antibody, V domains shown) VH: QSVEESGGRLVTPGTPLTLTCTVSGFSLSSYAMSWVRQAPGKGLEWIGIISSSGTTYYASWAKGPFTISKTSTTVDLKITSPTTEDTATYFCARGGAGYGYAHYYGMDPWGPGTLVTVSS VL: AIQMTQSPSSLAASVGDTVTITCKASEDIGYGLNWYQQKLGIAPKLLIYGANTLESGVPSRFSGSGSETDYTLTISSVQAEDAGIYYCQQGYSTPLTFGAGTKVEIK ?
A) 0.0423 µg/mL

Q) Same thing, different binder: P043.A.00097.B02 (antibody, V domains shown) VH: QELVESGGGLVQAGESLKLSCKASGIDFSSYGISWVRQAPGKGLEWIAYIYPGFGITNYANSVKGRFTISSDNAQNTVFLQMTSLTASDTATYFCTRAYASSSGYYIHYFNLWGPGTLVTVSS VL: AIQMTQSPSSLAASVGDTVTITCKASEDIGYGLNWYQQKLGIAPKLLIYGANTLESGVPSRFSGSGSETDYTLTISSVQAEDAGIYYCQQAYSTPLTFGAGTKVEIK
A) 0.0417 µg/mL

Q) How about P043.A.00032.C04 (antibody, V domains shown, also called 452; protein sample ID 452) VH: QSLEESGGRLVTPGTPLTLTCTASGFSLSSYWMSWVRQAPGKGLEWIGIIYVSGSTYYASWAKGRFTISKTSTTVDLKMTSLTTEDTATYFCARVDYSTGWPLFNIWGPGTLVTVSL VL: AQVLTQTASPVSAAVGGTVTINCQSSQSVYDNNWLGWYQQKPGQPPKLLIYGASILASGVPSRFKGSGSGTQFTLTISDLESDDAATYYCQGGCSGNTFVFGGGTEVVVK ?
A) 0.115 µg/mL
